# assay-protocol: in vitro
# Type: cell-based
# run-conditions: human, HepG2 or HepG2.117 cells, 3-days incubation (unmarked values), ATPlite; mean value
test-readout: CC50 at 3 days

Form field: reported CC50 at 3 days of COc1ccc(CNc2nc3c(c(=O)n2-c2ccc4ncoc4c2)CCN(C(=O)c2ccc(Cl)c(Cl)c2)C3)cc1
> 50 µM

# CC50 at 3 days lookup, item CNC(=O)c1ccc(-n2c(N[C@H](CCO)C3CC3)nc3c(c2=O)C[C@@H](C)N(C(=O)c2ccc(Cl)c(Cl)c2)C3)cc1 (single isomer, unassigned)
> 50 µM

What does the data say about its CC50 at 3 days? Entry: CC(C)Nc1nc2c(c(=O)n1-c1ccc(S(C)(=O)=O)cc1)CCN(C(=O)c1ccn3ncnc3c1)C2
> 50 µM

Using the record for CNC(=O)C12CC(n3c(NC(C)C)nc4c(c3=O)C[C@@H](C)N(C(=O)c3ccc(Cl)c(Cl)c3)C4)(C1)C2 , report its CC50 at 3 days.
> 50 µM

// CC50 at 3 days lookup, key: CNc1noc2cc(-n3c(NC(C)C)nc4c(c3=O)C[C@@H](C)N(C(=O)c3ccc(Cl)c(Cl)c3)C4)ccc12
> 50 µM

May I ask what CC50 at 3 days has been recorded for CCOC(=O)c1cccc(-n2c(NCc3ccc(OC)cc3)nc3c(c2=O)CCN(C(=O)c2ccc(Cl)c(Cl)c2)C3)c1 ?
> 50 µM
